Just for reference, ChEMBL document CHEMBL1131510 is where these values come from.

experiment: Acid dissociation constant value for the compound was determined; assay type: ADME
ENDPOINT_LABEL: pKa
The response must contain the number and no unit.

>  <STRUCTURE_SMILES>
CCCCCC[C@@H](C)OC(=O)CC(=O)CBr

>  <EXPERIMENTAL_RESULT>
8.5

$$$$
>  <STRUCTURE_SMILES>
CCCCCC[C@H](C)OC(=O)CC(C)=O

>  <EXPERIMENTAL_RESULT>
10.5

$$$$

Please turn your attention to the following entry.
Give the measured pKa of `CCCCCCCCC(=O)CC(C)=O` . 9

====

Target: Fatty-acid amide hydrolase 1 (Homo sapiens, UniProt O00519)
Sequence (O00519 whole entry): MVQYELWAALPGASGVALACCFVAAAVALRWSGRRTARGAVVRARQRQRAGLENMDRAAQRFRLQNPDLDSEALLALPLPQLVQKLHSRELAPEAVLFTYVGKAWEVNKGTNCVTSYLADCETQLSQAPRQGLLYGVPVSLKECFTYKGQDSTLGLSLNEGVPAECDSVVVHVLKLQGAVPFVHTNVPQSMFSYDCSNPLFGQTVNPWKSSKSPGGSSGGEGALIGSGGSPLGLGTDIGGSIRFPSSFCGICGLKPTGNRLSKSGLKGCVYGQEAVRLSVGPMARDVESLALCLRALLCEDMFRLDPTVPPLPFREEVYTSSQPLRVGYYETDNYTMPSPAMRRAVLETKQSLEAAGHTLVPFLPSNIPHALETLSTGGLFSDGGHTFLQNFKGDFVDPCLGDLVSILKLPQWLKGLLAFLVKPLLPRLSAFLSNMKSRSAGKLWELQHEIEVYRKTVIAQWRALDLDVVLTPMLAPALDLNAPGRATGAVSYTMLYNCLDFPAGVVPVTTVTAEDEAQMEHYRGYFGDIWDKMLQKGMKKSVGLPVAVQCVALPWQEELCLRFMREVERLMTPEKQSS
Assay: Inhibitory concentration against Fatty-acid amide hydrolase (FAAH) at pH 9.0
Item-by-item account of pIC50
Please report pIC50 as the negative decimal logarithm of the molar concentration, giving only the number.

Below are worked cases with known answers.
>  <STRUCTURE_SMILES>
CCCCCCCC/C=C\CCCCCCCC(=O)C(F)(F)F

>  <EXPERIMENTAL_RESULT>
6.22

$$$$
>  <STRUCTURE_SMILES>
CCCCCCCOC(=O)CC(=O)CBr

>  <EXPERIMENTAL_RESULT>
5.82

$$$$

Reported pIC50 for `CCCCCC[C@@H](C)OC(=O)CC(=O)CBr` : what is it? 5.59

Report pIC50 for `CCCCCCCC/C=C\CCCCCCCC(=O)CBr` please. 6.00

What pIC50 value was documented for this molecule, `CCCCCC[C@@H](C)OC(=O)CC(=O)CCl` ? 5.54

Can you share its pIC50? I mean this molecule: `CCCCCC[C@H](C)OC(=O)CC(=O)CBr` 5.40

Look up pIC50: `CCCCCCCC/C=C\CCCCOC(=O)CC(=O)CBr` 6.22
